- Tested on: HCC-2998 colon
- ASSAY_DETAILS: NCI-60 one-dose screen, 48 h (100 = growth as untreated, 0 = no growth, -100 = all killed)
- REPORTED_CONDITIONS: 10 µM unless noted
This is part of a sample that, as a whole, favours compounds with a hit. Of some 83,000 tested, about 20% had one in any assay.
TEST_READOUT: growth (%)
Lab book: enter the figure in %, no units written.

growth lookup needed for Cc1ccc(C(=O)N/N=C/c2cccc([N+](=O)[O-])c2)cn1 , thanks. 107

Which value of growth has been reported for COc1ccc2nc(NCCCNCCO)c3sc4ccc(F)cc4c(=O)c3c2c1 in the records? -82.9

Tell me the measured growth of COC(=O)Nc1ccc(-c2nc(-c3cccc(OC)c3)c(-c3ccnc(Br)c3)[nH]2)cc1 , please. 71.5

For the compound O=C1NC(=O)C(Cn2cnc3ccccc32)N1 (centres undefined) , what growth is on record? 103

From: PubChem BioAssay (NCI)
